Tested on: A498 renal
Experiment description: NCI-60 one-dose screen, 48 h
Condition description: 10 µM unless noted
The panel holds about 83,000 compounds, 20% with a hit somewhere; the sample as a whole holds those more often. Calls of active or inactive are those of the source. Rule for the calls: active = growth percent below 10; inactive = the rest.
Outcomes: true (1) for active, false (0) for inactive

[
  {
    "Molecule": "O=C(N=Nc1c(O)[nH]c2ccccc12)Nc1ccccc1Cl",
    "Class assignment": "false (0)"
  },
  {
    "Molecule": "O=C1C=C(Nc2ccccc2)c2ncccc2C1=O",
    "Class assignment": "true (1)"
  },
  {
    "Molecule": "COc1cc(/C=C2\\CCC/C(=C\\c3cc(CN4CCCC4)c(O)c(OC)c3)C2=O)cc(CN2CCCC2)c1O",
    "Class assignment": "false (0)"
  },
  {
    "Molecule": "COc1ccc(CN2CCc3c(Cl)nc(N)nc3C2=O)c(OC)c1",
    "Class assignment": "false (0)"
  },
  {
    "Molecule": "CCOc1nc(-c2ccccc2)cc2c(O)c(C(=O)N/N=C/c3ccc(N(C)C)cc3)[nH]c(=O)c12",
    "Class assignment": "false (0)"
  },
  {
    "Molecule": "CCCNNC(=O)/C=C/c1ccc(CNCCc2c(C)[nH]c3ccccc23)cc1",
    "Class assignment": "true (1)"
  },
  {
    "Molecule": "Nc1ncc(-c2ccc3ncnc(N4CCc5ccc(Cl)cc54)c3c2)cc1C(F)(F)F",
    "Class assignment": "true (1)"
  },
  {
    "Molecule": "CC(C)=CCc1cc(O)c(O)c2oc3cc(O)cc(O)c3c(=O)c12",
    "Class assignment": "false (0)"
  },
  {
    "Molecule": "C[N+]1=C(/C=C\\C=C\\c2ccccc2)C(C)(C)c2ccccc21",
    "Class assignment": "false (0)"
  },
  {
    "Molecule": "CCOC(=O)C(=CCC(C)C)C(=O)OCC",
    "Class assignment": "false (0)"
  },
  {
    "Molecule": "N#C/C(=C\\c1ccc(Br)cc1)n1nnc2c(F)cccc21",
    "Class assignment": "true (1)"
  },
  {
    "Molecule": "COc1ccc(-c2cc(-c3cccc(Cl)c3)c(C#N)c(=O)[nH]2)c(OC)c1",
    "Class assignment": "false (0)"
  },
  {
    "Molecule": "CCN1C(=O)/C(=c2\\sc3n(c2=O)C2C(NN=3)N(CC)C(=O)N2CC)c2ccccc21 (stereo unspecified)",
    "Class assignment": "true (1)"
  },
  {
    "Molecule": "N=C(N)c1ccc(-c2ccc(-c3ccc(F)cc3)s2)nc1",
    "Class assignment": "false (0)"
  },
  {
    "Molecule": "Nc1n[nH]c2cccc(C#Cc3cccc(C(=O)Nc4ccc(CN5CCOCC5)c(C(F)(F)F)c4)c3)c12",
    "Class assignment": "false (0)"
  },
  {
    "Molecule": "Clc1cccc(Nc2ncnc3ccc(-c4cncc(-n5cnnn5)c4)cc23)c1",
    "Class assignment": "true (1)"
  },
  {
    "Molecule": "COc1ccc2c(c1)oc1c(C)c3c(c(C)c12)C(=O)N(Nc1ccccc1)C3=O",
    "Class assignment": "false (0)"
  },
  {
    "Molecule": "O=C1N=c2ccccc2=C1c1sc(=S)n(C2CC(=O)N(c3ccc(Cl)cc3)C2=O)c1O (stereo unspecified)",
    "Class assignment": "false (0)"
  },
  {
    "Molecule": "O=C1CCc2c(sc3[nH]c(=S)n(Cc4ccc(Cl)cc4)c(=O)c23)C1",
    "Class assignment": "true (1)"
  },
  {
    "Molecule": "COc1cc(-c2[nH]ncc2Nc2ccc(Cl)cc2)cc(OC)c1OC",
    "Class assignment": "false (0)"
  },
  {
    "Molecule": "N=c1c2c(-c3ccccc3)c(-c3ccccc3)oc2ncn1NC(=O)c1cccnc1",
    "Class assignment": "false (0)"
  }
]
